- assay-explanation: physchem
// logP lookup, one value per entry
readout-label: logP

INSERT INTO measurements (molecule, value_measured) VALUES
  ('OCCOCCO', -1.3),
  ('OCCOc1ccccc1', 1.2),
  ('CC(O)CCO (centres unmarked)', -1.4),
  ('CCCCOCCO', 0.8),
  ('OC1CCCCC1', 1.2);

Ref: patent US6916432B2
